tested on: Staphylococcus aureus; assay: Antibacterial activity against Staphylococcus aureus assessed as growth inhibition at 10 ug/disk; format: functional; settings: read-out: IZ
# zone of inhibition at 10 µg/disc listing for each entry below
Write down the numeric answer in mm and omit the unit.

For orientation, consider the following solved cases.
- molecule: "Cc1ccccc1OCc1ccccc1-c1nc(CN2CCN(C(c3ccccc3)c3ccc(Cl)cc3)CC2)cs1 (stereo not given)"
  value-observed: 28
- molecule: "Cc1ccccc1OCc1ccccc1-c1nc(CN2CCN(C(c3ccccc3)c3ccccc3)CC2)cs1"
  value-observed: 23

Please report the recorded zone of inhibition at 10 µg/disc for `Cc1cccc(OCc2ccccc2-c2nc(-c3cccc(Br)c3)cs2)c1` .
12

Please report the recorded zone of inhibition at 10 µg/disc for `Cc1ccc(OCc2ccccc2-c2nc(-c3cccc(Br)c3)cs2)cc1` .
10

Please report the recorded zone of inhibition at 10 µg/disc for `Clc1ccc(OCc2ccccc2-c2nc(-c3cccc(Br)c3)cs2)cc1` .
22

---

system: Staphylococcus aureus; assay: Antibacterial activity against Staphylococcus aureus assessed as growth inhibition at 10 ug/disk; format: functional; conditions: read-out: IZ
property-label: zone of inhibition at 10 µg/disc
Hey, just the number and the unit after it is fine.

For orientation, consider the following solved cases.
- compound: "Cc1ccccc1OCc1ccccc1-c1nc(COc2ccc(Cl)cc2)cs1"
  value-observed: "20 mm"
- compound: "O=C(O)c1cn(C2CC2)c2cc(N3CCNCC3)c(F)cc2c1=O"
  value-observed: "26 mm"
- compound: "Clc1ccc(OCc2ccccc2-c2nc(CN3CCN(C(c4ccccc4)c4ccc(Cl)cc4)CC3)cs2)cc1 (stereo not given)"
  value-observed: "27 mm"
- compound: "Clc1ccc(OCc2csc(-c3ccccc3COc3ccc(Cl)cc3)n2)cc1"
  value-observed: "28 mm"
- compound: "NC(=O)c1cc(-c2csc(-c3ccccc3COc3ccc(Cl)cc3)n2)ccc1O"
  value-observed: "28 mm"
- compound: "Cc1ccc(OCc2ccccc2-c2nc(-c3cc(Cl)sc3S(N)(=O)=O)cs2)cc1"
  value-observed: "20 mm"
- compound: "Cc1ccccc1OCc1ccccc1-c1nc(-c2ccc([N+](=O)[O-])cc2)cs1"
  value-observed: "10 mm"
- compound: "Cc1cccc(OCc2ccccc2-c2nc(-c3cc(Cl)sc3S(N)(=O)=O)cs2)c1"
  value-observed: "18 mm"
- compound: "Cc1ccccc1OCc1ccccc1-c1nc(-c2ccc(O)c(C(N)=O)c2)cs1"
  value-observed: "18 mm"
- compound: "Cc1ccc(OCc2ccccc2-c2nc(CN3CCN(C(c4ccccc4)c4ccc(Cl)cc4)CC3)cs2)cc1 (stereo not given)"
  value-observed: "28 mm"

Please report the recorded zone of inhibition at 10 µg/disc for `Cc1ccccc1OCc1ccccc1-c1nc(-c2cc(Cl)sc2S(N)(=O)=O)cs1` .
22 mm

Please report the recorded zone of inhibition at 10 µg/disc for `Cc1cccc(OCc2ccccc2-c2nc(-c3ccc([N+](=O)[O-])cc3)cs2)c1` .
8 mm

Please report the recorded zone of inhibition at 10 µg/disc for `Cc1ccccc1OCc1ccccc1-c1nc(-c2cccc(Br)c2)cs1` .
10 mm

Please report the recorded zone of inhibition at 10 µg/disc for Cc1cccc(OCc2ccccc2-c2nc(CN3CCN(C(c4ccccc4)c4ccc(Cl)cc4)CC3)cs2)c1 (stereo not given) .
28 mm

Please report the recorded zone of inhibition at 10 µg/disc for `Cc1ccc(OCc2ccccc2-c2nc(CN3CCN(C(c4ccccc4)c4ccccc4)CC3)cs2)cc1` .
20 mm

---

system: Escherichia coli; assay: Antibacterial activity against Escherichia coli assessed as growth inhibition at 10 ug/disk; format: functional; details: read-out: IZ
Lab note: anything with zone of inhibition at 10 µg/disc at or over 20 mm counts as rule met; the rest go in rule not met.

Reference set, count: 3
- structure-as-smiles: "Cc1ccc(OCc2ccccc2-c2nc(-c3ccc(O)c(C(N)=O)c3)cs2)cc1"
  classification: "rule not met"
- structure-as-smiles: "Cc1ccc(OCc2ccccc2-c2nc(CN3CCN(C(c4ccccc4)c4ccccc4)CC3)cs2)cc1"
  classification: "rule not met"
- structure-as-smiles: "NS(=O)(=O)c1sc(Cl)cc1-c1csc(-c2ccccc2COc2ccc(Cl)cc2)n1"
  classification: "rule met"

Now turn to the next compound.
Dear colleague, could you confirm whether `NC(=O)c1cc(-c2csc(-c3ccccc3COc3ccc(Cl)cc3)n2)ccc1O` has zone of inhibition at 10 µg/disc at or above 20 mm?
rule met

---

# zone of inhibition at 10 µg/disc listing for each entry below
test system: Escherichia coli; assay: Antibacterial activity against Escherichia coli assessed as growth inhibition at 10 ug/disk; format: functional; settings: read-out: IZ
Hey, just the number and the unit after it is fine.

- structure-as-smiles: "Cc1cccc(OCc2ccccc2-c2nc(-c3ccc(O)c(C(N)=O)c3)cs2)c1"
  zone of inhibition at 10 µg/disc: "20 mm"
- structure-as-smiles: "Cc1cccc(OCc2ccccc2-c2nc(COc3ccc(Cl)cc3)cs2)c1"
  zone of inhibition at 10 µg/disc: "20 mm"

Please report the recorded zone of inhibition at 10 µg/disc for `Cc1ccccc1OCc1ccccc1-c1nc(-c2ccc(O)c(C(N)=O)c2)cs1` .
20 mm
